Where do the numbers come from? From ChEMBL document CHEMBL4819047.

# Target System: 5-hydroxytryptamine receptor 2A (Homo sapiens, UniProt P28223)
# Sequence (P28223 whole entry): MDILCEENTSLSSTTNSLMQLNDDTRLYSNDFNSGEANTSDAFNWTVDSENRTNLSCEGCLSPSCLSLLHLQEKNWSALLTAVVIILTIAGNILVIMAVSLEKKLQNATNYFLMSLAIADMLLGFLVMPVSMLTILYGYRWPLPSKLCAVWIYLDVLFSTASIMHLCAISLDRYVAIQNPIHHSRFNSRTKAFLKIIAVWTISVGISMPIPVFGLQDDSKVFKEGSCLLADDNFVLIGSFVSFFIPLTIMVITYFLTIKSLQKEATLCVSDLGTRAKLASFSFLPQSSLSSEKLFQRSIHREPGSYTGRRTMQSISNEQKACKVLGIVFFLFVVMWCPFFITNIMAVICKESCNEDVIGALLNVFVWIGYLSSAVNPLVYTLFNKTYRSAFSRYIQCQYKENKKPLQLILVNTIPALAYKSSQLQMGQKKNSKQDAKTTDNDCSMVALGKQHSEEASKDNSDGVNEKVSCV
# Assay Text: Antagonist activity at 5-HT2A receptor (unknown origin)
Reported Metric: IC50 (nM)
Answers are plain numbers, in nM.

Per the records, this molecule ( Fc1ccc2c(C3CCN(CCCOc4ccc(CCN5CCOCC5)cc4)CC3)noc2c1 ) has IC50 equal to 186

====

Sequence of the target: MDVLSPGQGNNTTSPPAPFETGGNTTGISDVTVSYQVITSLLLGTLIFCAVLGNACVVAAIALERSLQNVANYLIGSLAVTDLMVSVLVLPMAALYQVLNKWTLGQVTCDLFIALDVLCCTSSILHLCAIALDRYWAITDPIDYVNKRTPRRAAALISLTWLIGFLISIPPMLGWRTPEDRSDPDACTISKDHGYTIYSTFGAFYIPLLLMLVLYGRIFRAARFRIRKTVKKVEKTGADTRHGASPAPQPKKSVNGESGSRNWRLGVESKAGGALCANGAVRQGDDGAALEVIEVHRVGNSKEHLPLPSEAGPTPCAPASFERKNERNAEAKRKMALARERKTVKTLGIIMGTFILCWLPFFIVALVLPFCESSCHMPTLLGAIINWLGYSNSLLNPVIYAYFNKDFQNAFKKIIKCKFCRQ
Reported Metric: pKi
Numbers only, as −log10 of the molar value.

Consider the following illustrative entries.
| Item Smiles | Measured Result |
| --- | --- |
| Fc1ccc2c(C3CCN(CCCOc4ccc(CCN5CCOCC5)cc4)CC3)noc2c1 | 8.25 |
| O=c1ccc(OCCCN2CCC(c3noc4cc(F)ccc34)CC2)nn1-c1c(F)cccc1F | 8.23 |
| Fc1ccc2c(C3CCN(CCCOc4ccc(CN5CCCC5)cc4)CC3)noc2c1 | 7.09 |

Now examine the next entry.
Per the records, this compound ( Fc1ccc2c(C3CCN(CCCOc4ccc(CN5CCCCC5)cc4)CC3)noc2c1 ) has pKi equal to 7.05
